Biological target: Mushroom-derived tyrosinase
Assay: Inhibitory effect of tyrosinase activity
Assay type: biochemical
Conditions: L-tyrosine substrate, 20 minutes at 37° C., absorbance at 490 nm
parameter: IC50 (ppm), inhibitory effect of tyrosinase activity
Value expressed in ppm; do not type the unit.

Observe how each entry below is paired with its result.
{"molecule": "CC(C)=CCC[C@](C)(O[C@@H]1O[C@H](CO[C@@H]2O[C@H](CO)[C@@H](O)[C@H](O)[C@H]2O)[C@@H](O)[C@H](O)[C@H]1O)[C@H]1CC[C@]2(C)[C@@H]1[C@H](O)C[C@@H]1[C@@]3(C)CC[C@H](O[C@@H]4O[C@H](CO)[C@@H](O)[C@H](O)[C@H]4O[C@@H]4O[C@H](CO)[C@@H](O)[C@H](O)[C@H]4O)C(C)(C)[C@@H]3CC[C@]12C [GS#05, ginsenoside Rb1]", "experimental system": "Mushroom-derived tyrosinase", "unit of measure": "ppm", "experimental value": 47}
{"molecule": "CC(C)=CCC[C@](C)(O[C@@H]1O[C@H](CO)[C@@H](O)[C@H](O)[C@H]1O)[C@H]1CC[C@]2(C)[C@@H]1[C@H](O)C[C@@H]1[C@@]3(C)CC[C@H](O[C@@H]4O[C@H](CO)[C@@H](O)[C@H](O)[C@H]4O[C@@H]4O[C@H](CO)[C@@H](O)[C@H](O)[C@H]4O)C(C)(C)[C@@H]3CC[C@]12C [GS#04, ginsenoside Rd]", "experimental system": "Mushroom-derived tyrosinase", "unit of measure": "ppm", "experimental value": 31}
{"molecule": "CC(C)=CCC[C@](C)(O)[C@H]1CC[C@]2(C)[C@@H]1[C@H](O)C[C@@H]1[C@@]3(C)CC[C@H](O)C(C)(C)[C@@H]3[C@@H](O[C@@H]3O[C@H](CO)[C@@H](O)[C@H](O)[C@H]3O[C@@H]3O[C@@H](C)[C@H](O)[C@@H](O)[C@H]3O)C[C@]12C [GS#02, ginsenoside Rg2]", "experimental system": "Mushroom-derived tyrosinase", "unit of measure": "ppm", "experimental value": 30}
{"molecule": "CC(C)=CCC[C@](C)(O[C@@H]1O[C@H](CO[C@@H]2OC[C@H](O)[C@H](O)[C@H]2O)[C@@H](O)[C@H](O)[C@H]1O)[C@H]1CC[C@]2(C)[C@@H]1[C@H](O)C[C@@H]1[C@@]3(C)CC[C@H](O[C@@H]4O[C@H](CO)[C@@H](O)[C@H](O)[C@H]4O[C@@H]4O[C@H](CO)[C@@H](O)[C@H](O)[C@H]4O)C(C)(C)[C@@H]3CC[C@]12C [GS#06, ginsenoside Rb2]", "experimental system": "Mushroom-derived tyrosinase", "unit of measure": "ppm", "experimental value": 53}
{"molecule": "CC(C)=CCC[C@](C)(O[C@@H]1O[C@H](CO)[C@@H](O)[C@H](O)[C@H]1O)[C@H]1CC[C@]2(C)[C@@H]1[C@H](O)C[C@@H]1[C@@]3(C)CC[C@H](O)C(C)(C)[C@@H]3[C@@H](O[C@@H]3O[C@H](CO)[C@@H](O)[C@H](O)[C@H]3O[C@@H]3O[C@@H](C)[C@H](O)[C@@H](O)[C@H]3O)C[C@]12C [GS#03, ginsenoside Re]", "experimental system": "Mushroom-derived tyrosinase", "unit of measure": "ppm", "experimental value": 27}
{"molecule": "CC(C)=CCC[C@](C)(O[C@@H]1O[C@H](CO)[C@@H](O)[C@H](O)[C@H]1O)[C@H]1CC[C@]2(C)[C@@H]1[C@H](O)C[C@@H]1[C@@]3(C)CC[C@H](O)C(C)(C)[C@@H]3[C@@H](O[C@@H]3O[C@H](CO)[C@@H](O)[C@H](O)[C@H]3O)C[C@]12C [GS#01, ginsenoside Rg1]", "experimental system": "Mushroom-derived tyrosinase", "unit of measure": "ppm", "experimental value": 23}

Entry CC1(C)C(=O)CC[C@@]2(C)C1[C@@H](O[C@H]1OC(CO)[C@H](O)C(O)C1O[C@H]1OC(CO)[C@H](O)C(O)C1O)C[C@]1(C)C2C[C@@H](O)C2C([C@]3(C)CC[C@H](C(C)(C)O)O3)CC[C@]21C (some centres unmarked) : IC50 (ppm), inhibitory effect of tyrosinase activity on Mushroom-derived tyrosinase = 15

Entry OC[C@H]1O[C@@H](Oc2ccc(O)cc2)[C@H](O)[C@@H](O)[C@@H]1O : IC50 (ppm), inhibitory effect of tyrosinase activity on Mushroom-derived tyrosinase = 149
